# Measured on: Bcl-2-related protein A1 (Homo sapiens)
# Sequence (Q16548 whole entry): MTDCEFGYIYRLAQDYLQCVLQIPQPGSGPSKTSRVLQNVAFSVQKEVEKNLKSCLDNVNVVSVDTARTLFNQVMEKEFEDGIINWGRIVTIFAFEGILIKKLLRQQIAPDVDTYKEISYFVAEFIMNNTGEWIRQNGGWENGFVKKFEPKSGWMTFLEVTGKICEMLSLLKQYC
Recorded metric: Ki

[[record]]
chem_smiles = "Cc1nn(C)c(COc2ccc(N3CCN(S(C)(=O)=O)CC3)cc2)c1-c1cccc2c(CCCOc3cccc4ccccc34)c(C(=O)O)n(CCN3CCOCC3)c12"
recorded_metric = "Ki"
result = "> 0.66 µM"

